biological target: human recombinant AdamTS-5 (Homo sapiens, UniProt Q9UNA0); assay: Biochemical activity testing of ADAMTS-5: aggrecan peptide cleavage assay (AlphaScreen); conditions: 4.5 nM human recombinant AdamTS-5, biotinylated 43mer aggrecan peptide, 180 min at 37° C.; read-out: IC50 [ADAM-NTS5]M
Sequence (Q9UNA0 262-930): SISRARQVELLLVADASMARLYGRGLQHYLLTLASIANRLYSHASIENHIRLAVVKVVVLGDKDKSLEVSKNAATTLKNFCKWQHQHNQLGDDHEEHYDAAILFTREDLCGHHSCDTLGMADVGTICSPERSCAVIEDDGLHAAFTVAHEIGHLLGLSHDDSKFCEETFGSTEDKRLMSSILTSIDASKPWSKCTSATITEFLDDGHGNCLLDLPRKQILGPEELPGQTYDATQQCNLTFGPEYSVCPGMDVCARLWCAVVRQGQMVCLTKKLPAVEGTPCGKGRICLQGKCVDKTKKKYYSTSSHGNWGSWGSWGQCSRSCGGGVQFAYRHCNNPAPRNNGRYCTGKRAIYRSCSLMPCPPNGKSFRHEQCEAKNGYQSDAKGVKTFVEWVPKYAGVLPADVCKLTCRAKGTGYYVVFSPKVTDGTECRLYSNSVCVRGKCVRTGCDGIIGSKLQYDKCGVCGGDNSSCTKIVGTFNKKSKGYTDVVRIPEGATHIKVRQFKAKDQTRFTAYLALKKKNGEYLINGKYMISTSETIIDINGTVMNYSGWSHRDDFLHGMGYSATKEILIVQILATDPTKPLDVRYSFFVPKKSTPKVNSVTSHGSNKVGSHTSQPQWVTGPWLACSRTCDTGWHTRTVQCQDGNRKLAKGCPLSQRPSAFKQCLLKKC
pIC50: −log10 of the molar value.
reported metric: pIC50

>  <compound>
C[C@@H](C[C@H](NC(=O)N1CCN(c2ccccc2)CC1)C(=O)NC(C)(C)Cc1ccc(F)cc1)C(=O)O

>  <numeric value>
6.44

$$$$
>  <compound>
CC(C)(Cc1ccc(F)cc1)NC(=O)[C@H](C[C@H](Cc1ccccc1)C(=O)O)NC(=O)c1ccc(-c2ccccc2)cc1

>  <numeric value>
6.82

$$$$
>  <compound>
C[C@@H](C[C@H](NC(=O)N1CCC(c2ccccc2)CC1)C(=O)NC(C)(C)Cc1ccc(F)cc1)C(=O)O

>  <numeric value>
5.92

$$$$
>  <compound>
C[C@@H](C[C@H](NC(=O)c1ccc(-c2ccccc2)cc1)C(=O)NC(C)(C)Cc1ccc(F)cc1)C(=O)O

>  <numeric value>
7.07

$$$$
>  <compound>
C[C@@H](C[C@H](NC(=O)c1ncc(-c2ccc(F)cc2)s1)C(=O)NC(C)(C)Cc1ccc(F)cc1)C(=O)O

>  <numeric value>
7.33

$$$$
>  <compound>
C[C@@H](C[C@H](NC(=O)c1ccc(-c2ccccc2)cc1)C(=O)NC(C)(C)Cc1cccnc1)C(=O)O

>  <numeric value>
7.18

$$$$
>  <compound>
C[C@@H](C[C@H](NC(=O)c1ccc(-c2cccnc2)cc1)C(=O)NC(C)(C)Cc1ccc(F)cc1)C(=O)O

>  <numeric value>
6.41

$$$$
>  <compound>
C[C@@H](C[C@H](NC(=O)c1ccc(-c2ccccc2)cn1)C(=O)NC(C)(C)Cc1ccc(F)cc1)C(=O)O

>  <numeric value>
6.48

$$$$
>  <compound>
COc1cc(CNC(=O)[C@H](CC(C)C(=O)O)NC(=O)c2ccc(-c3ccccc3)cc2)cc(OC)c1OC (mixture of isomers)

>  <numeric value>
7.89

$$$$
>  <compound>
C[C@@H](C[C@H](NC(=O)c1cnc(-c2ccc(F)cc2)s1)C(=O)NC(C)(C)Cc1ccc(F)cc1)C(=O)O

>  <numeric value>
5.85

$$$$
>  <compound>
COC[C@@H](C[C@H](NC(=O)c1ccc(-c2ccccc2)cc1)C(=O)NC(C)(C)Cc1ccc(F)cc1)C(=O)O

>  <numeric value>
6.77

$$$$
>  <compound>
C[C@@H](C[C@H](NC(=O)c1ccc(-c2ccccc2)cc1F)C(=O)NC(C)(C)Cc1ccc(F)cc1)C(=O)O

>  <numeric value>
6.60

$$$$
>  <compound>
C[C@@H](Cc1ccc(F)cc1)NC(=O)[C@H](C[C@H](C)C(=O)O)NC(=O)c1ccc(-c2ccccc2)cc1 (single isomer, unassigned)

>  <numeric value>
7.21

$$$$
>  <compound>
CCC[C@@H](C[C@H](NC(=O)c1ccc(-c2ccccc2)cc1)C(=O)NC(C)(C)Cc1ccc(F)cc1)C(=O)O

>  <numeric value>
6.77

$$$$
>  <compound>
C[C@@H](C[C@H](NC(=O)c1ccc(-c2ccn(C)n2)cc1)C(=O)NC(C)(C)Cc1ccc(F)cc1)C(=O)O

>  <numeric value>
6.74

$$$$
>  <compound>
Cc1cnc(-c2ccc(C(=O)N[C@@H](C[C@H](C)C(=O)O)C(=O)NC(C)(C)Cc3ccc(F)cc3)cc2)s1

>  <numeric value>
5.92

$$$$
>  <compound>
C[C@@H](C[C@H](NC(=O)C1CCN(c2ccc(F)cc2)CC1)C(=O)NC(C)(C)Cc1ccc(F)cc1)C(=O)O

>  <numeric value>
6.49

$$$$
>  <compound>
CC(Cc1ccc(F)cc1)NC(=O)[C@H](C[C@H](C)C(=O)O)NC(=O)c1ccc(-c2ccccc2)cc1 (single isomer, unassigned)

>  <numeric value>
6.28

$$$$
>  <compound>
C[C@@H](C[C@H](NC(=O)c1ccc(-c2ccccn2)cc1)C(=O)NC(C)(C)Cc1ccc(F)cc1)C(=O)O

>  <numeric value>
6.72

$$$$
>  <compound>
C[C@@H](C[C@H](NC(=O)c1ccc(-c2ccccc2)nc1)C(=O)NC(C)(C)Cc1ccc(F)cc1)C(=O)O

>  <numeric value>
6.46

$$$$
